Biological target: TBK1 (Homo sapiens (Human))
Assay: TBK1 low ATP kinase assay (in vitro assay 1)
Format: biochemical
Details: in vitro assay 1, read-out: TBK1 low ATP kinase assay IC50
Measure: IC50 (nM)

[P] CC(c1ccnc(Nc2nc3ccc(-c4ccncn4)cc3[nH]2)c1)N1CCN(C(=O)CC(F)(F)F)CC1 (single isomer, unassigned) [Example 23.05.02.B]
[Q] Cc1noc(-c2ccc3nc(Nc4cc(CN5CCN(c6c(Cl)cncc6Cl)CC5)ccn4)[nH]c3c2)n1
Q) Between the entries labeled P and Q , whose measured IC50 is lower? Use the label to indicate which entry you chose.
A) P
(P: 1.86 nM, Q: 280 nM)

[a] CCOc1nccc(-c2ccc3nc(Nc4cc(CN5CCN(C(=O)CC(F)(F)F)CC5)ccn4)[nH]c3c2)n1
[b] O=C(C1CC1)N1CCN(Cc2ccnc(Nc3nc4ccc(-c5ccnc(F)c5)cc4[nH]3)c2)CC1
[c] Cc1ncc(C)c(-c2ccc3nc(Nc4cc(CN5CCN(C(=O)OC(C)(C)C)CC5)ccn4)[nH]c3c2)n1
Q) // smallest IC50 at index 0, largest at the end To answer, write out the labels according to the requested order.
A) a, b, c
(a: 13 nM, b: 20 nM, c: 3540 nM)

---

Target: TBK1 (Homo sapiens (Human), UniProt Q9UHD2)
Sequence (Q9UHD2 whole entry): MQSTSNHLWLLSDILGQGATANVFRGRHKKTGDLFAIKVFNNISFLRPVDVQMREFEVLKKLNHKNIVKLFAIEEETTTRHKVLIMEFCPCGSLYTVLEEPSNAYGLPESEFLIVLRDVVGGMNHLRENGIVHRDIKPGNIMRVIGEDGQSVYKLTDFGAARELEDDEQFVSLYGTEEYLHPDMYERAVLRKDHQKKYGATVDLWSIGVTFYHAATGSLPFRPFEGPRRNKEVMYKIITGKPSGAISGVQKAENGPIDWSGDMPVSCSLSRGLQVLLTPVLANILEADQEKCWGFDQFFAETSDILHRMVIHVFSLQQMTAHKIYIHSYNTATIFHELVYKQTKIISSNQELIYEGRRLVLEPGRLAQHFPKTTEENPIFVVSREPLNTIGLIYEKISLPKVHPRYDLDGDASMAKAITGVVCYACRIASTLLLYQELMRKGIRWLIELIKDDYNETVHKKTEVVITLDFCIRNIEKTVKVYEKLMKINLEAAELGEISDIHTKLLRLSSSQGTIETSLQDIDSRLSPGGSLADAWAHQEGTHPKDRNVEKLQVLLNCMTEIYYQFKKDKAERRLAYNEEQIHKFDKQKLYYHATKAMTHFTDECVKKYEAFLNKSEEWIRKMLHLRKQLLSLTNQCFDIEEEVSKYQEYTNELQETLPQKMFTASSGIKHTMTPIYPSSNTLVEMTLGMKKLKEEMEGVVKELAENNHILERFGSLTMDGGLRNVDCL
Assay: TBK1 low ATP kinase assay (in vitro assay 1)
Type: biochemical
Settings: in vitro assay 1, read-out: TBK1 low ATP kinase assay IC50
pIC50: −log10 of the molar value.
Measure: pIC50

Answered cases to consult:
Molecule	System	Measurement
CCS(=O)(=O)N1CCN(Cc2ccnc(Nc3nc4ccc(-c5ncncc5OC)cc4[nH]3)c2)CC1	TBK1 (Homo sapiens (Human), UniProt Q9UHD2)	7.61
COc1c(C)ncnc1-c1ccc2nc(Nc3cc(CN4CCN(C(=O)CC(F)(F)F)CC4)ccn3)[nH]c2c1	TBK1 (Homo sapiens (Human), UniProt Q9UHD2)	7.71
COc1c(-c2ccc3nc(Nc4cc(CN5CCN(C(=O)OC(C)(C)C)CC5)ccn4)[nH]c3c2)ncnc1N(C)C	TBK1 (Homo sapiens (Human), UniProt Q9UHD2)	7.28
Cc1noc(C)c1-c1cc(-c2ccc3nc(Nc4cc(CN5CCN(C(=O)CC(F)(F)F)CC5)ccn4)[nH]c3c2)ncn1	TBK1 (Homo sapiens (Human), UniProt Q9UHD2)	6.35
CC(c1ccnc(Nc2nc3ccc(-c4ccnn4C)cc3[nH]2)c1)N1CCN(C(=O)C2CC2)CC1 (single isomer, unassigned)	TBK1 (Homo sapiens (Human), UniProt Q9UHD2)	7.59

[1] COc1cncnc1-c1ccc2nc(Nc3cc(CN4CCN(C(=O)CC(F)(F)F)CC4)ccn3)[nH]c2c1
[2] Cc1nccc(-c2ccc3nc(Nc4cc(C(C)N5CCN(C(=O)CC6CC6)CC5)ccn4)[nH]c3c2)n1 (single isomer, unassigned) [Example 24.05.03.A]
Q) Please let me know which one, 1 or 2 , has a lower measured pIC50 value. # answer = label of selected item
A) 2

---

Molecular target: TBK1 (Homo sapiens (Human))
Experiment: TBK1 low ATP kinase assay (in vitro assay 1)
Assay type: biochemical
Conditions: in vitro assay 1, read-out: TBK1 low ATP kinase assay IC50
Measure: IC50 (nM)

Compound	Measure	Measurement
COc1c(NCC2CC2)ncnc1-c1ccc2nc(Nc3cc(C(C)N4CCN(C(=O)OC(C)(C)C)CC4)ccn3)[nH]c2c1 (single isomer, unassigned)	IC50	8

[A] CC(c1ccnc(Nc2nc3ccc(-c4ccnn4C(C)C)cc3[nH]2)c1)N1CCN(C(=O)CC(F)(F)F)CC1 (single isomer, unassigned)
[B] CC(c1ccnc(Nc2nc3ccc(-c4cc(OCC(F)(F)F)ncn4)cc3[nH]2)c1)N1CCN(C(=O)C2CC2)CC1 (single isomer, unassigned)
Q) Hi there! Just curious which has the higher IC50 between A and B . Your answer should be the label attached to the chosen record.
A) A
(A: 250 nM, B: 5.93 nM)

---

Molecular target: TBK1 (Homo sapiens (Human), UniProt Q9UHD2)
Assay: TBK1 low ATP kinase assay (in vitro assay 1)
Type: biochemical
Details: in vitro assay 1, read-out: TBK1 low ATP kinase assay IC50
pIC50: −log10 of the molar value.
Measure: pIC50

[P] COc1cc(-c2ccc3nc(Nc4cc(C(C)N5CCN(C(=O)C6CC6)CC5)ccn4)[nH]c3c2)ncn1 (single isomer, unassigned) [Example 34.03.02.A]
[Q] Cc1nccc(-c2ccc3nc(Nc4cc(C(C)N5CCN(C(=O)C6CC6)CC5)ccn4)[nH]c3c2)n1 (racemic) [Example 24.04.01]
Q) Compare pIC50: is it lower for P or for Q ? Output the label that corresponds to your choice.
A) P

[A] O=C(C1CC1)N1CCN(Cc2ccnc(Nc3nc4ccc(-c5ncnc(NC6CC6)c5F)cc4[nH]3)c2)CC1
[B] Cc1noc(-c2ccc3nc(Nc4cc(C(C)N5CCN(C(=O)C6CC6)CC5)ccn4)[nH]c3c2)n1 (racemic) [Example 16.05.03]
Q) Which shows the larger pIC50 value: A or B ? Lab note: record the label of whichever item you select.
A) A

---

Target: TBK1 (Homo sapiens (Human), UniProt Q9UHD2)
Assay: TBK1 low ATP kinase assay (in vitro assay 1)
Assay type: biochemical
Conditions: in vitro assay 1, read-out: TBK1 low ATP kinase assay IC50
pIC50: −log10 of the molar value.
Measure: pIC50

Compound	pIC50
CNc1cc(-c2ccc3nc(Nc4cc(CN5CCN(C(=O)C6CC6)CC5)ccn4)[nH]c3c2)ncn1	8.27
COc1cnc(OCC2CC2)nc1-c1ccc2nc(Nc3cc(CN4CCN(C(=O)C5CC5)CC4)ccn3)[nH]c2c1	7.47
Cc1nnc(-c2ccc3nc(Nc4cc(CN5CCN(C(=O)C6CC6)CC5)ccn4)[nH]c3c2)o1	7.48

[a] O=C(C1CCC1)N1CCN(Cc2ccnc(Nc3nc4ccc(-c5nc(C6CC6)no5)cc4[nH]3)c2)CC1
[b] COc1ccc(-c2ccc3nc(Nc4cc(CN5CCN(C(=O)C6CC6)CC5)ccn4)[nH]c3c2)cn1
[c] CCOc1nccc(-c2ccc3nc(Nc4cc(C(C)N5CCN(C(=O)CC(F)(F)F)CC5)ccn4)[nH]c3c2)n1 (single isomer, unassigned) [Example 26.03.01.B]
[d] O=C(CC1CC1)N1CCN(Cc2ccnc(Nc3nc4ccc(-c5ccncn5)cc4[nH]3)c2)CC1
[e] COc1cnc(C)cc1-c1ccc2nc(Nc3cc(CN4CCN(C(=O)C5CCC5)CC4)ccn3)[nH]c2c1
Q) Rank descending by pIC50. Lab note: record answer as labels in requested order.
A) c, d, a, b, e
(c: 7.71, d: 7.48, a: 7.21, b: 6.78, e: 6.42)

---

Target: TBK1 (Homo sapiens (Human), UniProt Q9UHD2)
Assay: TBK1 low ATP kinase assay (in vitro assay 1)
Type: biochemical
Settings: in vitro assay 1, read-out: TBK1 low ATP kinase assay IC50
Measure: IC50 (nM)

Molecule	IC50, nM
CNc1cc(-c2ccc3nc(Nc4cc(CN5CCN(C(=O)CC(F)(F)F)CC5)ccn4)[nH]c3c2)ncn1	9.6

[a] COc1c(NC2CCC2)ncnc1-c1ccc2nc(Nc3cc(C(C)N4CCN(C(=O)C5CC5)CC4)ccn3)[nH]c2c1 (single isomer, unassigned)
[b] Cc1cc(-c2ccc3nc(Nc4cc(C(C)N5CCN(C(=O)C6CC6)CC5)ccn4)[nH]c3c2Cl)ncn1 (stereo not drawn)
Q) I would appreciate it if you could say which entry, a or b , has the lower IC50 value. Use the label to indicate which entry you chose.
A) a

---

Target: UniProt:Q9UHD2
Assay: TBK1 low ATP kinase assay (in vitro assay 1)
Format: biochemical
Conditions: in vitro assay 1, read-out: TBK1 low ATP kinase assay IC50
pIC50: −log10 of the molar value.
Measure: pIC50

Sample records with pIC50:
Molecule	pIC50
Cc1noc(-c2ccc3nc(Nc4cc(CN5CCN(C(=O)C6CCC6)CC5(C)C)ccn4)[nH]c3c2)n1	6.31
Cc1nccc(-c2ccc3nc(Nc4cc(C(C)N5CCN(C(=O)CC(F)(F)F)CC5)ccn4)[nH]c3c2)n1 (racemic) [Example 24.04.03]	7.91
CC(c1ccnc(Nc2nc3ccc(-c4cc(N5CCCC5)ncn4)cc3[nH]2)c1)N1CCN(C(=O)C(C)(C)O)CC1 (single isomer, unassigned)	8.57

[P] Cc1noc(-c2ccc3nc(Nc4cc(CN5C[C@@H](C)N(C(=O)CC6CC6)C[C@@H]5C)ccn4)[nH]c3c2)n1
[Q] COc1cncnc1-c1ccc2nc(Nc3cc(C(C)N4CCN(C(=O)C5CCC5)CC4)ccn3)[nH]c2c1 (single isomer, unassigned) [Example 35.03.04.A]
[R] O=C(C1CC1)N1CCN(Cc2ccnc(Nc3nc4ccc(-c5ccncn5)cc4[nH]3)c2)CC1
[S] Cc1cc(-c2ccc3nc(Nc4cc(C(C)N5CCN(C(=O)OC(C)(C)C)CC5)ccn4)[nH]c3c2)n(C)n1 (single isomer, unassigned)
[T] O=C(CC1CC1)N1CCN(Cc2ccnc(Nc3nc4ccc(-c5nc(C6CC6)no5)cc4[nH]3)c2)CC1
Q) Thanks in advance: please rank these 5 entries by pIC50, highest to lowest. Put the labels in the requested order and write them down.
A) Q, R, T, P, S
(Q: 8.08, R: 7.66, T: 7.25, P: 6.64, S: 6.21)

[I] CCOc1ncnc(-c2ccc3nc(Nc4cc(CN5CCN(C(=O)OC(C)(C)C)CC5)ccn4)[nH]c3c2)c1OC
[II] O=C(CC(F)(F)F)N1CCN(Cc2ccnc(Nc3nc4ccc(-c5ccnc(C(F)F)c5)cc4[nH]3)c2)CC1
[III] O=C(CC(F)(F)F)N1CCN(Cc2ccnc(Nc3nc4ccc(-c5ccnc(F)c5)cc4[nH]3)c2)CC1
[IV] COc1cc(-c2ccc3nc(Nc4cc(C(C)N5CCN(C(=O)C6CC6)CC5)ccn4)[nH]c3c2)ncn1 (racemic) [Example 34.02.02]
Q) Arrange these 4 molecules in increasing order of pIC50. Field: ranking. Enter the labels in the order requested.
A) I, II, IV, III

[I] COc1c(OCC2CC2)ncnc1-c1ccc2nc(Nc3cc(CN4CCN(C(=O)OC(C)(C)C)CC4)ccn3)[nH]c2c1
[II] COc1cncnc1-c1ccc2nc(Nc3cc(C(C)N4CCN(C(=O)C5CCC5)CC4)ccn3)[nH]c2c1 (racemic) [Example 35.02.04]
Q) Between I and II , which one shows the smaller pIC50 number? Could you answer with the label of the item you picked?
A) I

[I] Cc1noc(-c2ccc3nc(Nc4cc(CN5CCN(C(=O)c6cccnc6)CC5)ccn4)[nH]c3c2)n1
[II] Cc1nccc(-c2ccc3nc(Nc4cc(C(C)N5CCN(C(=O)CC6CC6)CC5)ccn4)[nH]c3c2)n1 (racemic) [Example 24.04.04]
Q) Sorting ascending by pIC50, which comes first: I or II ? Write down the label attached to your selection.
A) I

[a] Cc1nccc(-c2ccc3nc(Nc4cc(CN5CCN(C(=O)CC(F)(F)F)CC5)ccn4)[nH]c3c2)c1Cl
[b] CC(c1ccnc(Nc2nc3ccc(-c4cnn(CC5CCC5)c4)c(Cl)c3[nH]2)c1)N1CCN(C(=O)CC(F)(F)F)CC1 (single isomer, unassigned)
Q) Which record would sort first by descending pIC50, a or b ? Please identify the chosen entry by its label.
A) b
(b: 8.85, a: 6.72)

[P] COc1c(C)ncnc1-c1ccc2nc(Nc3cc(C(C)N4CCN(C(=O)CC(F)(F)F)CC4)ccn3)[nH]c2c1 (single isomer, unassigned)
[Q] Cc1noc(-c2ccc3nc(Nc4cc(CN5CCN(C(=O)CC6CC6)CC5(C)C)ccn4)[nH]c3c2)n1
Q) Could you please tell me which of these two has the higher pIC50: P or Q ? // return label of chosen record
A) P

[1] CN(C)c1ncnc(-c2ccc3nc(Nc4cc(CN5CCN(C(=O)CC(F)(F)F)CC5)ccn4)[nH]c3c2)c1F
[2] CCOc1c(-c2ccncc2OC)ccc2nc(Nc3cc(CN4CCN(C(=O)C5CCC5)CC4)ccn3)[nH]c12
[3] N#Cc1cc(-c2ccc3nc(Nc4cc(CN5CCN(C(=O)CC(F)(F)F)CC5)ccn4)[nH]c3c2)ncn1
Q) List from greatest to least pIC50. Sort and list the labels as requested.
A) 3, 1, 2

[A] CCOc1cnc(C)cc1-c1ccc2nc(Nc3cc(CN4CCN(C(=O)CC(F)(F)F)CC4)ccn3)[nH]c2c1
[B] COc1c(-c2ccc3nc(Nc4cc(CN5CCN(C(=O)C6CC6)CC5)ccn4)[nH]c3c2)ncnc1N(C)CC1CC1
Q) Which of the two gives a bigger number for pIC50: A or B ? Answer with the label corresponding to your selection.
A) B
(B: 7.52, A: 6.60)
